# system-tested: CDK2:cyclin E (Homo sapiens)
# Construct: unpurified lysate
# method-notes: In vitro kinase assay, CDK2:cyclin E
This listing pairs compounds with measured IC50.

# compound, system-tested, IC50
rows = [
    ("Nc1ccc2c(=S)c3ccccc3[nH]c2c1 [Compound 3, 3-Amino-10H-acridine-9-thione]", "CDK2:cyclin E (Homo sapiens)", "80 µM"),
    ("O=C(CNc1ccc2c(=S)c3ccccc3[nH]c2c1)Nc1ccccc1-c1ccccc1NC(=O)CNc1ccc2c(=S)c3ccccc3[nH]c2c1", "CDK2:cyclin E (Homo sapiens)", "> 100 µM"),
    ("COc1ccc(OC)c2c(=S)c3ccccc3[nH]c12 [Compound 4, 1,4-Dimethoxy-10H-acridine-9-thione]", "CDK2:cyclin E (Homo sapiens)", "> 100 µM"),
    ("O=S1(=O)NN=C(NCc2ccc(F)cc2)c2ccccc21", "CDK2:cyclin E (Homo sapiens)", "> 100 µM"),
]

* * *

# system-tested: CDC2:cyclin A (Homo sapiens)
# Construct: unpurified lysate
# Sequence (P06493 whole entry): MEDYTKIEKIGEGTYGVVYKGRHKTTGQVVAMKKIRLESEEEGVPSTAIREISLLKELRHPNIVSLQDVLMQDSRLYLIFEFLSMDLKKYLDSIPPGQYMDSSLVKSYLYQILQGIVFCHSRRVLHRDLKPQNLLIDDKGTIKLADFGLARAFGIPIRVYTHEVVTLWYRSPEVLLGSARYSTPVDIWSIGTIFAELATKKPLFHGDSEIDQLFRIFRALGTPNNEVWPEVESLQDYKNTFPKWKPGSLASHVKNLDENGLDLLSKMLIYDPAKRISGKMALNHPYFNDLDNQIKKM
# Sequence (P20248 whole entry partner): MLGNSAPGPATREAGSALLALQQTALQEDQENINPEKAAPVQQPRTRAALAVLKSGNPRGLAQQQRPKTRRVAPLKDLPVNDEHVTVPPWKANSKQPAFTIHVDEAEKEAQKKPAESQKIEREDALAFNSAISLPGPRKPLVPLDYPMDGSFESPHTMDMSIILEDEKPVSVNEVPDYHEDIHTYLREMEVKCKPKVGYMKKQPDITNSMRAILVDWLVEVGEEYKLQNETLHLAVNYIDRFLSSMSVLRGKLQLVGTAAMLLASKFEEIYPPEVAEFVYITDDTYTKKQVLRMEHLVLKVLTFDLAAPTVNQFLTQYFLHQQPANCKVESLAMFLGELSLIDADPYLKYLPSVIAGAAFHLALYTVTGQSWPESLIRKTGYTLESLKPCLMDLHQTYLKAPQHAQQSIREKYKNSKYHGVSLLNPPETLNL
# method-notes: In vitro kinase assay, CDC2:cyclin A
pIC50: −log10 of the molar value.

# compound, value-modifier, pIC50
measured = [
    ("Nc1ccc2c(=S)c3ccccc3[nH]c2c1 [Compound 3, 3-Amino-10H-acridine-9-thione]", "=", 4.22),
    ("COc1ccc(OC)c2c(=S)c3ccccc3[nH]c12 [Compound 4, 1,4-Dimethoxy-10H-acridine-9-thione]", "<", 4.00),
    ("O=C(CNc1ccc2c(=S)c3ccccc3[nH]c2c1)Nc1ccccc1-c1ccccc1NC(=O)CNc1ccc2c(=S)c3ccccc3[nH]c2c1 [Compound 5]", "=", 4.15),
    ("O=S1(=O)NN=C(NCc2ccc(F)cc2)c2ccccc21 [Compound 6]", "<", 4.00),
]

* * *

This listing pairs molecules with measured pIC50.
# system-tested: CDK4:cyclin D1 (Homo sapiens, UniProt P11802)
# Sequence (P11802 whole entry): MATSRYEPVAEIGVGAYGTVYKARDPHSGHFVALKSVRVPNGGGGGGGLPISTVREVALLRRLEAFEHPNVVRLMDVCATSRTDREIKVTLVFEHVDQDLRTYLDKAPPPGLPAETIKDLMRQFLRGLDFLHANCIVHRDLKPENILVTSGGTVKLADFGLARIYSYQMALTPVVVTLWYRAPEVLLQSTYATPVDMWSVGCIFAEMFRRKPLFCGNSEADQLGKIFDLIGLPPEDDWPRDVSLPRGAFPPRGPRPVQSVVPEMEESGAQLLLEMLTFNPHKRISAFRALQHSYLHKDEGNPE
# Sequence (P24385 whole entry partner): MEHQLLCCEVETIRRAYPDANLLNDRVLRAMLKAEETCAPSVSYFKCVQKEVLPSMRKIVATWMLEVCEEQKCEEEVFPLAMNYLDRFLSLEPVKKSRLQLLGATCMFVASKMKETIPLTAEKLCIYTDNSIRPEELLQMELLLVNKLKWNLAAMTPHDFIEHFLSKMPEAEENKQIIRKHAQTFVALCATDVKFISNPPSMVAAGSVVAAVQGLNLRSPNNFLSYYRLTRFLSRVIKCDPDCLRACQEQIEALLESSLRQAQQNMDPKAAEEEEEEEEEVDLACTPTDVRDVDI
# method-notes: In vitro kinase assay, CDK4:cyclin D1, GST-Rb substrate
pIC50: −log10 of the molar value.
measured-metric: pIC50

# molecule, recorded-number
records = [
    ("O=C(CNc1ccc2c(=S)c3ccccc3[nH]c2c1)Nc1ccccc1-c1ccccc1NC(=O)CNc1ccc2c(=S)c3ccccc3[nH]c2c1", 5.96),
    ("O=S1(=O)NN=C(NCc2ccc(F)cc2)c2ccccc21", 5.30),
    ("Nc1ccc2c(=S)c3ccccc3[nH]c2c1 [Compound 3, 3-Amino-10H-acridine-9-thione]", 5.17),
    ("COc1ccc(OC)c2c(=S)c3ccccc3[nH]c12 [Compound 4, 1,4-Dimethoxy-10H-acridine-9-thione]", 5.66),
]
